Assay Procedure: Stability of analytes in rat plasma under storage conditions
Format: physicochemical
Details: room temperature 24 h, low QC concentration, n = 6
Observable: Stability RE, processed samples' stability (%)
Kindly answer with a numeric value in %, unit omitted.

Solved cases (3 shown):
O=c1c2c3c(ccc2cc2n1CCc1cc4c(cc1-2)OCO4)OCO3 [8-oxocoptisine] ... −3.71
COc1cc2c(cc1OC)-c1cc3ccc4c(c3c[n+]1CC2)OCO4 [epiberberine] ... 2.78
COc1cc2c(cc1OC)-c1cc3ccc4c(c3c(=O)n1CC2)OCO4 [8-oxoepiberberine] ... −7.14

Prompt: Supply Stability RE, processed samples' stability value. Item: Cn1c(=O)n(CCC2(O)C(=O)Nc3ccccc32)c(=O)c2ccccc21 (centres unmarked) [wuchuyuamide-I]
Response: 15.1

Prompt: Supply Stability RE, processed samples' stability value. Item: COc1cc2c(cc1OC)C(=O)NCC2 [corydaldine]
Response: 13.85

Prompt: Supply Stability RE, processed samples' stability value. Item: CCCCC=CCCCCCCCc1cc(=O)c2ccccc2n1C [evocarpine]
Response: 14.05

Prompt: Supply Stability RE, processed samples' stability value. Item: COc1cc2c(cc1OC)-c1cc3ccc(OC)c(OC)c3c[n+]1CC2 [palmatine]
Response: −9.27

Prompt: Supply Stability RE, processed samples' stability value. Item: COc1ccc2cc3[n+](cc2c1OC)CCc1cc2c(cc1-3)OCO2 [berberine]
Response: 9.52

Prompt: Supply Stability RE, processed samples' stability value. Item: C[n+]1c2n(c(=O)c3ccccc31)CCc1c-2[nH]c2ccccc12 [dehydroevodiamine]
Response: −0.76

Prompt: Supply Stability RE, processed samples' stability value. Item: O=C1NCCc2cc3c(cc21)OCO3 [noroxyhydrastinine]
Response: −8.14

Prompt: Supply Stability RE, processed samples' stability value. Item: c1c2c(cc3c1OCO3)-c1cc3ccc4c(c3c[n+]1CC2)OCO4 [coptisine]
Response: −10.47

# credit: paper PMC6155683
